Listed here: items and their measured boiling point.
measurement-name: boiling point (°C)

{"columns": ["molecule", "recorded-measurement"],
 "data": [
  ["CC(O)C1CCCCC1 (stereo not drawn)", 189],
  ["COC(=O)C(F)(F)C(F)(F)C(F)(F)C(F)(F)C(F)(F)C(F)(F)C(F)(F)F", 158],
  ["c1cc2c(cn1)CCCC2", 218],
  ["O=C(O)c1c(F)c(F)c(F)c(F)c1F", 220],
  ["CCCN=C=S", 153],
  ["Cc1ccccc1F", 115],
  ["CCCC(C)=O", 102],
  ["CC(C)C(C)(C)C(C)C", 142],
  ["CCc1ccccn1", 149],
  ["CCN(CCO)CCO", 247],
  ["CCCCC(=O)Cl", 109],
  ["C=C1CC2CC1CC2(C)C (stereo not drawn)", 152],
  ["CCC(C)(C)c1ccccc1", 192],
  ["Cc1cccc(C)c1C", 176],
  ["CCC(C)(C)C(=O)Cl", 132],
  ["C=CCC", -6.2],
  ["FCC(F)(F)C(F)F", 26],
  ["c1ccc(CC2CCCCN2)cc1 (stereo not drawn)", 268]
]}

---

{"columns": ["compound", "melting point"],
 "data": [
  ["O=C(O)c1c(F)c(F)c(F)c(F)c1C(=O)O", "163 °C"],
  ["O=C(Nc1ccc(Cl)cc1)Nc1ccc(Cl)c(Cl)c1", "256 °C"],
  ["O=C1CCN(c2ccccc2)N1", "126 °C"],
  ["CCOC=O", "-79.6 °C"],
  ["COc1cc(O)c2c(=O)c(-c3ccc(O)cc3)coc2c1", "240 °C"],
  ["CCN(CC)CCN1C(=O)CN=C(c2ccccc2F)c2cc(Cl)ccc21", "79.5 °C"],
  ["CCC(Cl)C(C)Cl (stereo not given)", "-77.3 °C"],
  ["O=S(=O)(O)CS(=O)(=O)O", "98 °C"],
  ["CCCc1ccccc1C", "-60.3 °C"],
  ["Cc1cc(C)c(C(=O)O)c(C)c1", "154 °C"],
  ["CCOC(=O)COC(=O)c1cc(Oc2ccc(C(F)(F)F)cc2Cl)ccc1[N+](=O)[O-]", "65 °C"],
  ["CCCCCCCCCCCCCCCCCCc1ccccc1", "29 °C"],
  ["[N-]=[N+]=Nc1ccc(Cl)cc1", "20 °C"],
  ["CCOCOCC", "-66.5 °C"],
  ["C[N+]1(C)CCCCC1.[Cl-]", "223 °C"]
]}

---

Listed here: items and their measured melting point.

{"columns": ["smiles-code", "melting point / °C"],
 "data": [
  ["CN(C)CCCOc1nn(Cc2ccccc2)c2ccccc12.Cl", 160],
  ["CCCCCCCCCCCCCCCCCCCCCCCCCCCCCC(=O)O", 93.6],
  ["C#CC(C)(C)C", -78.2],
  ["ClCc1ccc(CCl)cc1", 100],
  ["CCSc1nnc(C(C)(C)C)c(=O)n1N", 95],
  ["N=CN", 81],
  ["CCCCNc1cc(C(=O)O)cc(S(N)(=O)=O)c1Oc1ccccc1", 230],
  ["CCN(C(=O)n1nnn(-c2ccccc2Cl)c1=O)C1CCCCC1", 79],
  ["ClCCC(Cl)Cl", -59],
  ["CCCCCCCCCCCCCCCC1CCCCC1", 29],
  ["Clc1ncccn1", 67],
  ["CCCCCCCCCCCC1=C(O)C(=O)C=C(O)C1=O", 142],
  ["S=C(SC(=S)N1CCCCC1)N1CCCCC1", 110],
  ["NS(=O)(=O)c1ccc(SCCCO)c(Cl)c1", 127],
  ["c1ccc(CC2CCNCC2)cc1", 16.8]
]}
